Source: paper PMC12223813

Test system: HCT-116, human primary colon cancer cell line
assay details: Antiproliferative activity, MTT assay
Format: cell-based
test parameters: Homo sapiens, HCT-116; 72 h, MTT, mean ± SD
pIC50: −log10 of the molar value.
# pIC50 values compiled below

{"compound": "C=C(C)[C@@H]1CC[C@]2(C(=O)O)CC[C@]3(C)[C@H](CC[C@@H]4[C@@]5(C)CC[C@H](O)C(C)(C)[C@@H]5CC[C@]43C)[C@@H]12 [betulinic acid, reference compound]", "pIC50": 4.10}
{"compound": "C=C[C@H]1C[N@@]2CC[C@H]1C[C@@H]2[C@@H](O)c1ccnc2ccc(OC)cc12 [quinidine, reference compound]", "pIC50": 4.17}
{"compound": "CCC(C)C1OC2(CCC1C)CC1CC(CC=C(C)C(OC(=O)Cn3cc(COC(=O)CCC(=O)OC4OC5OC6(C)CCC7C(C)CCC(C4C)C57OO6)nn3)C(C)C=CC=C3COC4C(O)C(C)=CC(C(=O)O1)C34O)O2 (stereo not drawn) [compound 16, Ivermectin–Artesunate Conjugate]", "pIC50": 5.35}
